Species on record: Rattus norvegicus
Experiment: Open TG-GATES - Regimen: Daily Repeat
Type: toxicity, organism-based, Sprague-Dawley
Set-up: regimen Daily Repeat, gender Male, age 6 weeks
Conditions: in vivo, po, 1000 mg/kg, 72 h, tissue Plasma, route gavage, dose level High, time 3 day
Each item that follows carries a reported AST.
MEASURED_QUANTITY: AST

MOLECULE | MEASURED_QUANTITY | DATA_VALUE
NC(N)=Nc1nc(CSCCC(N)=NS(N)(=O)=O)cs1 | AST | 60.4 IU/L
CC(C)OC(=O)C(C)(C)Oc1ccc(C(=O)c2ccc(Cl)cc2)cc1 [FENOFIBRATE] | AST | 83.8 IU/L
CCOc1ccc(NC(=O)CC(C)O)cc1 (stereo unspecified) | AST | 74 IU/L
COc1ccc2[nH]c([S+]([O-])Cc3ncc(C)c(OC)c3C)nc2c1 (stereo unspecified) | AST | 46 IU/L
CCOC(=O)CCC(=O)O[C@H]1[C@H](O[C@@H]2[C@@H](C)[C@H](O[C@H]3C[C@@](C)(OC)[C@@H](O)[C@H](C)O3)[C@@H](C)C(=O)O[C@H](CC)[C@@](C)(O)[C@H](O)[C@@H](C)C(=O)[C@H](C)C[C@@]2(C)O)O[C@H](C)C[C@@H]1N(C)C [ERYTHROMYCIN ETHYLSUCCINATE] | AST | 67.4 IU/L
COC1=CC(=O)C[C@@H](C)[C@]12Oc1c(Cl)c(OC)cc(OC)c1C2=O | AST | 63.8 IU/L

====

Species: Rattus norvegicus
Test: Open TG-GATES - Regimen: Daily Repeat
Assay type: toxicity, organism-based, Sprague-Dawley
Parameters: regimen Daily Repeat, gender Male, age 6 weeks
Conditions: in vivo, po, 0 mg/kg, […], tissue Blood, route gavage, dose level Control, time 7 day
Each item that follows carries a reported Plat.

COMPOUND | UNIT_TAG | Plat
CCOC(=O)CCC(=O)O[C@H]1[C@H](O[C@@H]2[C@@H](C)[C@H](O[C@H]3C[C@@](C)(OC)[C@@H](O)[C@H](C)O3)[C@@H](C)C(=O)O[C@H](CC)[C@@](C)(O)[C@H](O)[C@@H](C)C(=O)[C@H](C)C[C@@]2(C)O)O[C@H](C)C[C@@H]1N(C)C [ERYTHROMYCIN ETHYLSUCCINATE] | x10_4/uL | 119.4
CCCNC(=O)NS(=O)(=O)c1ccc(Cl)cc1 [CHLORPROPAMIDE] | x10_4/uL | 124.5
CC1=C(/C=C/C(C)=C/C=C/C(C)=C/CO)C(C)(C)CCC1 [RETINOL] | x10_4/uL | 117.2
CN(C)CCN(Cc1cccs1)c1ccccn1 | x10_4/uL | 131
CCOc1ccc(NC(=O)CC(C)O)cc1 (stereo not drawn) [BUCETIN] | x10_4/uL | 112.2
COc1ccc2[nH]c([S+]([O-])Cc3ncc(C)c(OC)c3C)nc2c1 (stereo not drawn) [OMEPRAZOLE] | x10_4/uL | 124.2
NC(N)=Nc1nc(CSCCC(N)=NS(N)(=O)=O)cs1 [FAMOTIDINE] | x10_4/uL | 126.2
CC(C)OC(=O)C(C)(C)Oc1ccc(C(=O)c2ccc(Cl)cc2)cc1 [FENOFIBRATE] | x10_4/uL | 113.6

// data source = ChEMBL document CHEMBL3885861
